# System: COLO 205
# Procedure summary: NCI tumour cell line growth inhibition, 48 h
Activity calls are given as the source filed them. No stated cut-off is given here; in the data, active = GI50 up to about 1.1 µM and inactive = higher.
Endpoint label: GI50

What value of GI50 has been reported for the following molecule? Cc1ccc(C2=Nn3c(nc4sc(-c5ccccc5)cc4c3=O)SC2)cc1
> 100 µM (inactive)

Entry c1ccc(CSc2nc3ccccc3nc2-c2cccs2)cc1 please
> 100 µM (inactive)

Thanks! And CCOC(=O)c1nc2ccccc2nc1Oc1ccc(OC)cc1 ?
> 100 µM (inactive)

Param item: CC(C)(C)OC(=O)Cn1ncn(NC(=O)Cc2ccccc2)c1=O
> 10 µM (inactive)

Now consider Cc1ccc(Nc2cccc3c2C(=O)c2cccc(Nc4ccc(C)cc4S(=O)(=O)O)c2C3=O)c(S(=O)(=O)O)c1 and answer again.
> 100 µM (inactive)

Subsequent entry: CC(=O)NC1=C(OS(=O)(=O)c2ccc(C)cc2)CN(C)C1=O
5.75 µM (inactive)

Request: CCN(CC)CCC(=O)c1ccc(Oc2ccc(Cl)cc2)cc1
24.3 µM (inactive)

Item: CN(C)CCCNC(=O)c1cn2c(ccc3sc4ccccc4c(=O)c32)n1
3.77 µM (inactive)

---

# Test system: HOP-62
# Procedure summary: NCI tumour cell line growth inhibition, 48 h
Calls of active or inactive are those of the source. Cut-off read from the data, not from the text of the source: active = GI50 up to about 1.1 µM and inactive = higher.
Provide the recorded GI50 for the entries that follow.

GI50 of CCCNC(=O)c1cc(OC)c(OC)cc1NC(=O)C12CC3CC(CC(C3)C1)C2 on HOP-62?
19.7 µM (inactive)

Again, but for O=C1NC(=O)C2C(=O)NC(=O)C1C2(c1ccccc1)c1ccc(Cl)cc1 (centres undefined)
> 100 µM (inactive)

Then what about the compound CCc1nc2c([nH]1)C(=O)c1ccccc1C2=O ?
> 100 µM (inactive)

Similarly, COc1ccc(CC2COc3cc(OC)cc(OC)c3C2=O)cc1 (centres undefined) ?
24.9 µM (inactive)

Also need COC(=O)C1=Cc2cc3c(cc2[C@H](c2ccc4c(c2)OCO4)C1C(=O)OC)OCO3 (some centres undefined) , thanks.
> 100 µM (inactive)

Entry Cc1cc2c(cc1C)[n+]([O-])c(C(=O)C/C(=N/NC(=O)c1ccccc1O)C(=O)Nc1ccccc1C(C)C)c(C)[n+]2[O-] please
> 100 µM (inactive)

Proceed to OC(CCN1CCN(CCOC(c2ccccc2)c2ccccc2)CC1)c1ccccc1 (centres undefined)
20.5 µM (inactive)

Try the compound CCOC(=O)N(C)C(=C(F)F)C(F)(F)F
25.2 µM (inactive)

How about c1ccc(C2OC3(CCC[C@H]4C[C@H]43)O[C@H]2c2ccccc2)cc1 (some centres undefined) ?
56.1 µM (inactive)

---

Consider the following compounds; for each one, report its GI50.
# Tested on: 786-0
# Procedure summary: NCI tumour cell line growth inhibition, 48 h
The source made the active and inactive calls. Cut-off read from the data, not from the text of the source: active = GI50 up to about 1.1 µM and inactive = higher. Peptide text beside a SMILES is read from it. * marks the point of attachment. Trt = c1ccc(C(c2ccccc2)(c2ccccc2)*)cc1; Cbz = O=C(OCc1ccccc1)*

Suppose we examine the compound COC(=O)c1s/c(=N\C(=S)N(C)C)n(-c2ccc(Cl)cc2)c1C(=O)OC ; what GI50 value has been reported?
> 100 µM (inactive)

Input CSc1cccc(NC(=O)OC2CCCCCCCCCCC2)c1
20.9 µM (inactive)

Follow-up item: O=C1OC(=O)C2CCCC3CCCC1C32 (stereo unspecified)
> 100 µM (inactive)

Try O=C(CCN(C(=O)O)S(=O)(=O)c1ccc(NC(=O)c2ccccc2)cc1)NC1CCCCC1 next.
12.6 µM (inactive)

Now this one: CCOC(=O)/C(=C\c1ccnc2ccccc12)P(=O)(OCC)OCC
1.94 µM (inactive)

Query CCOc1cc(NC(C)=O)ccc1C(=O)NN1C(=O)/C(=C/c2cc(OC)c(OC)c(OC)c2)N=C1c1ccccc1 next
> 100 µM (inactive)

Another compound to check: O=c1[nH]c2ccsc2c(=O)n1COCc1ccccc1
> 100 µM (inactive)

Similarly, CC1=C2O[B-](c3ccccc3)(c3ccccc3)[O+]=C2C=CN1 ?
46.2 µM (inactive)

Thanks! And C/C(=N\NC(=S)Nc1ccc(C)cc1)c1nc2cccnc2[nH]1 ?
1.6 µM (inactive)

Entry COC(=O)C(CO)NC(=O)C(CSC(c1ccccc1)(c1ccccc1)c1ccccc1)NC(=O)OCc1ccccc1 (stereo unspecified) (Cbz-Cys(Trt)-Ser-OMe; configuration not given here) please
20.9 µM (inactive)

Now give it for CCN1C(NCCO)=NS(=O)(=O)c2ccccc21 too.
> 100 µM (inactive)

---

Provide the reported GI50 of each item.
# System: M14
# Procedure summary: NCI tumour cell line growth inhibition, 48 h
Active and inactive are the calls of the source. Rule as the data show it: active = GI50 up to about 1.1 µM and inactive = higher.

Query: GI50; subject: C=CCCCC1SC2=C(CC)CCCN2C1=O (centres undefined)
> 100 µM (inactive)

Try this compound too: CSC1=NS(=O)(=O)c2cc(C(=O)NN(C)C(=O)c3cc4c(cc3Cl)SC(SC)=NS4(=O)=O)c(Cl)cc2S1
> 10 µM (inactive)

Quick one: O=C1OC(=O)C2CCCC3CCCC1C32 (centres undefined)
> 100 µM (inactive)

Record: COC(=O)C1=C(C)NC(C)=C(C(=O)OC)C1c1cccc(/[N+]([O-])=C/c2ccccc2)c1
18.6 µM (inactive)

Further, for CC1=NN(c2nc(N)nc(CCl)n2)CC1 ?
25 µM (inactive)

// repeat for CCOC(=O)OC1C(Br)C2CCC1(C)C2(C)C (centres undefined) and report
12.6 µM (inactive)

What do you have for CCN(CC)CCC(=O)c1ccc(Oc2ccc(Cl)cc2)cc1 ?
15.1 µM (inactive)

What about Cc1nc(=O)n2c(C)n[nH]c2c1C(=O)O ?
> 100 µM (inactive)

Again, but for CCOC(=O)/C=C(/C(=O)OCC)n1cc(C)c(=O)n(Cc2cn(COCCOC(C)=O)nn2)c1=O
46 µM (inactive)

---

# Tested on: CAKI-1
# Procedure summary: NCI tumour cell line growth inhibition, 48 h
Activity calls are given as the source filed them. Rule as the data show it: active = GI50 up to about 1.1 µM and inactive = higher.
Assign GI50 to each entry below.

Give its GI50 value. Item: C/C(=C\COc1ccc2ccc(=O)oc2c1)CCC(=O)C(C)(C)O
29.2 µM (inactive)

Do the same for C=CCCCC1SC2=C(CC)CCCN2C1=O (stereo not given) please
> 100 µM (inactive)

Please do the same for COc1cc(/C=C(\C#N)c2ccccc2)cc(OC)c1 as well.
51.1 µM (inactive)

Please do the same for Cc1c2ccccc2cc2ccc3oc([N+](=O)[O-])cc3c12 as well.
> 100 µM (inactive)

Item: O=C(CC(=O)c1ccccc1)c1ccccc1.O=C(CC(=O)c1ccccc1)c1ccccc1.O=C(CC(=O)c1ccccc1)c1ccccc1.[SiH4]
4.92 µM (inactive)

---

# Test system: COLO 205
# Procedure summary: NCI tumour cell line growth inhibition, 48 h
Calls of active or inactive are those of the source. No stated cut-off is given here; in the data, active = GI50 up to about 1.1 µM and inactive = higher.
Endpoint label: GI50

I'd like to know its GI50. The molecule in question is Cc1ccc(S(=O)(=O)NCC2CCCCC2=O)cc1 (stereo not given)
> 100 µM (inactive)

For COC(=O)C1=C(C)NC(C)=C(C(=O)OC)C1c1cccc(/[N+]([O-])=C/c2ccccc2)c1 then?
16.8 µM (inactive)

One more molecule: CCOC(=O)NC1CC2CCC1(OC)C=C2C (stereo not given)
> 100 µM (inactive)

COC(=O)C1Cc2cc3c(cc2C1=O)CCC3 (stereo not given) , same question.
> 100 µM (inactive)

Now the same for CN(/N=C/c1ccc(OCc2cccc(COc3ccc(C=O)cc3)n2)cc1)c1cnn(-c2ccc(Cl)cc2Cl)c(=O)c1Cl
> 100 µM (inactive)

Then Cc1ccccc1C1OC(=O)c2ccc3ccccc3c21 (stereo not given) ?
1.37 µM (inactive)

Would you kindly repeat that for Cc1ccc(S(=O)(=O)N2CCSCCN(S(=O)(=O)c3ccc(C)cc3)CCN(S(=O)(=O)c3ccc(C)cc3)CC2)cc1 ?
> 100 µM (inactive)

What about CC1=C(c2ccccc2)NC(=S)C(C)C(c2ccccc2)=N1 (stereo not given) ?
30.9 µM (inactive)

Okay, and O=C(c1ccccc1)c1c(C(F)(F)F)[n+]([O-])c2cc(Cl)c(Cl)cc2[n+]1[O-] ?
2.93 µM (inactive)

Moving on to the next molecule: CCOC(=O)Cn1c2ccccc2c(=O)c2cc(C)c(C)c(C#N)c21
> 100 µM (inactive)

---

# Test system: HL-60
# Procedure summary: NCI tumour cell line growth inhibition, 48 h
Active and inactive are the calls of the source. Rule as the data show it: active = GI50 up to about 1.1 µM and inactive = higher.
Hi! Could you answer with just one of these? active, inactive

Lab log entry: CCN1C(NCCO)=NS(=O)(=O)c2ccccc21 — outcome as called in the assay?
inactive

// same read-out, input: Cc1ccc(S(=O)(=O)N2CCSCCN(S(=O)(=O)c3ccc(C)cc3)CCN(S(=O)(=O)c3ccc(C)cc3)CC2)cc1
inactive

Same question, COc1ccc(/C=N/n2cnc3c(c2=O)S/C(=C2/SC(=S)N(c4ccc(C)cc4)C2=O)N3c2ccccc2)cc1 this time
inactive

Ok, now Cc1ccc(S(=O)(=O)NCC2CCCCC2=O)cc1 (centres undefined)
inactive

// repeat for Cc1noc(/N=C2\C=C(Nc3onc(C)c3C)C(=O)c3ccccc32)c1C and report
inactive

Proceed to COc1cc([N+](=O)[O-])c(S(=O)(=O)O)cc1-n1nc(-c2ccccc2)n[n+]1-c1cc(S(=O)(=O)[O-])c([N+](=O)[O-])cc1OC
inactive

Note, next up: CCN(CC)CCC(=O)/C=C/c1ccc(Cl)c(Cl)c1
active

What do you get for COc1ccc(N2C(=O)[C@@H]3[C@@H]4CC(C)CC[C@@H]4c4c([nH]c5ccccc45)[C@@H]3C2=O)cc1 (some centres undefined) ?
inactive

// same read-out, input: NC(=O)/C=C/NC(=O)/C=N\O
inactive
